meta.source: patent US20240059769A1

TGT: recombinant human IL-13 (human, UniProt P35225 35-146)
Sequence (P35225 35-146 limits assumed): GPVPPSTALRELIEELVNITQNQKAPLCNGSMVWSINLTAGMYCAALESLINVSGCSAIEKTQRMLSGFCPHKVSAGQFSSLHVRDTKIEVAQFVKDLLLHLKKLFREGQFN
TEST_METHOD_NOTES: cell-based or functional assay
// values below are reported IC50 CD23

[
  {
    "BINDER": "BDG38.079 (antibody, V domains shown) VH: QMQLVESGGGVVQPGRSLRLSCAASGFAFRTYGMHWVRQAPGKGLEWVAVIWYDGSNTHYADSVKGRFTITRDNSKNTLNLQMNSLRAEDTAVYYCVRAPQWYLTAEAFDLWGQGTMVTVSS VL: SYVLTQPPSVSVAPGETATITCGGNMIGGYLVHWYQQKPGQAPLLVIYDDVDRPDRIPERFSGSNSGNTATLTISRVEAGDEADYYCQVWDHDSNTMVFGGGTKLTVL",
    "IC50 CD23 [nM]": 0.0718
  },
  {
    "BINDER": "BDG38.081 (antibody, V domains shown, IgG1) VH: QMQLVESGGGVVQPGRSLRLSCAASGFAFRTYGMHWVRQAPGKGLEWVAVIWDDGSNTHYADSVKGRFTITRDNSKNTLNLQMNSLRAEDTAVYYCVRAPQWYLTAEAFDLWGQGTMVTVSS VL: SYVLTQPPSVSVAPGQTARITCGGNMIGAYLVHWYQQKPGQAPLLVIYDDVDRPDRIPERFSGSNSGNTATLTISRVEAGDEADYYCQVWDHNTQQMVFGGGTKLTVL",
    "IC50 CD23 [nM]": 0.0339
  },
  {
    "BINDER": "BDG38.083 (antibody, V domains shown, IgG1) VH: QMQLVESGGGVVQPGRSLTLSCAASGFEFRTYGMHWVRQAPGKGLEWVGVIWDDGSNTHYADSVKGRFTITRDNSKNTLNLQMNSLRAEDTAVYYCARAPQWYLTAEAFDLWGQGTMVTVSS VL: SYILTQPPSVSVAPGQTATITCGGNLIGAKLVHWYQQKPGQAPVLVIYDDSDRPSRIPERFSGSNIGNTATLTISDVEEGDEADYYCQVWDYSSDTMVFGGGTKLTVL",
    "IC50 CD23 [nM]": 0.0215
  },
  {
    "BINDER": "BDG38.126 (antibody, V domains shown, IgG1) VH: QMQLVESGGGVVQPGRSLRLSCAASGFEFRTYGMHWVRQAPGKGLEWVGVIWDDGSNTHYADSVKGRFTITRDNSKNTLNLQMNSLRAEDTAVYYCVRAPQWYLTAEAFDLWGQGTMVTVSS VL: SYILTQPPSVSVAPGQTARITCGGNLIGAKLVHWYQQKPGQAPVLVIYDDSDRPSRIPERFSGSNIGNTATLTIERVEEGDEADYYCQVWDYSSDHMVFGGGTKLTVL",
    "IC50 CD23 [nM]": 0.0868
  },
  {
    "BINDER": "BDG38.116 (antibody, V domains shown, IgG1) VH: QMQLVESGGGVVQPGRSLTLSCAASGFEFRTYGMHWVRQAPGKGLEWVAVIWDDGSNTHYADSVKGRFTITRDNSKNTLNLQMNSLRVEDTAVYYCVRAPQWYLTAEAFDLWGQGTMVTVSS VL: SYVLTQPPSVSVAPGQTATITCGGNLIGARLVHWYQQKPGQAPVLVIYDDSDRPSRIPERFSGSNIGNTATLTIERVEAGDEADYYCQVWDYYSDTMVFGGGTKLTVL",
    "IC50 CD23 [nM]": 0.0837
  }
]
